# SYSTEM_TESTED: CaBzz1-D2
# PROTOCOL_DETAILS: SPOT peptide array binding signal intensity (averaged, normalized) (arbitrary units (background-subtracted, floor 0; scale differs between SH3 domains)); higher = stronger binding of the SH3 domain to the peptide
EXPERIMENTAL_ENDPOINT: SPOT peptide array binding signal intensity
Just the number, please.

The following binders have reported results that may help.
[[record]]
binder = "VPPPMQPPPIESSNL"
value = 8.25

[[record]]
binder = "KIRRSSLMIPNPQQF"
value = 206

[[record]]
binder = "PSRRAPLQLPQLVNK"
value = 41.8


Dear colleague, I am looking for the recorded SPOT peptide array binding signal intensity of the following binder: LYEAMPPTLPHRDWK
27.2

Dear colleague, I am looking for the recorded SPOT peptide array binding signal intensity of the following binder: YLTRPLPSTPNEDSR
12.5

Dear colleague, I am looking for the recorded SPOT peptide array binding signal intensity of the following binder: STKKPRPPVKSKPKH
104

Dear colleague, I am looking for the recorded SPOT peptide array binding signal intensity of the following binder: ISNFVPPNLPMRRFK
297

Dear colleague, I am looking for the recorded SPOT peptide array binding signal intensity of the following binder: SRSKPLPLTPNSKYN
162

Dear colleague, I am looking for the recorded SPOT peptide array binding signal intensity of the following binder: AVPPPPPPPPLPESL
158

Dear colleague, I am looking for the recorded SPOT peptide array binding signal intensity of the following binder: VYTRTAFQIPGDDKI
26

Dear colleague, I am looking for the recorded SPOT peptide array binding signal intensity of the following binder: FIRKRAPTPPAPSRS
4040

Dear colleague, I am looking for the recorded SPOT peptide array binding signal intensity of the following binder: DTFLPPPPPPPSNFE
11.8

Dear colleague, I am looking for the recorded SPOT peptide array binding signal intensity of the following binder: ALKQKKIPPPFKPHL
205

Dear colleague, I am looking for the recorded SPOT peptide array binding signal intensity of the following binder: FPPKRKPLLRPQRSD
135

Dear colleague, I am looking for the recorded SPOT peptide array binding signal intensity of the following binder: VRTRRRPPPPPIPST
3990
